Biological target: UniProt Q92793
Sequence (Q92793 1081-1197): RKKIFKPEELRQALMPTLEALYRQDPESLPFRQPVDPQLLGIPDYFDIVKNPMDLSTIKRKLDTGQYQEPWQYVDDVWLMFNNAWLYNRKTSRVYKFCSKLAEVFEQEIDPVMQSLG
Assay: In vitro CBP inhibition (AlphaScreen, biotinylated H4-tetraacetyl peptide)
Type: binding
Conditions: AlphaScreen, Table 29; read-out: CBP IC50
MEASURED_ATTRIBUTE: IC50

Cc1c(-c2cnn(Cc3ccccc3)c2)ccc(=O)n1C | > 5 µM
Cn1cc(-c2cnn(-c3cccc(F)c3C#N)c2)c(-c2ccc(NCC3CC3)nc2)cc1=O | < 0.5 µM
COc1ccc(C#N)c(-n2cc(-c3cn(C)c(=O)cc3-c3ccccc3)cn2)c1 | < 0.5 µM
COc1cc(-c2cc(=O)n(C)cc2-c2cnn(-c3ccccc3C#N)c2)cc(OC)c1OC | 0.5 to 5 µM

Pending compound:
Which measured IC50 value corresponds to Cn1cc(-c2ncc(-c3ccccc3)o2)c(-c2ccccc2)cc1=O ?
0.5 to 5 µM
